# target: recombinant Chk2 protein kinase (Homo sapiens, UniProt O96017)
# Sequence (O96017 whole entry): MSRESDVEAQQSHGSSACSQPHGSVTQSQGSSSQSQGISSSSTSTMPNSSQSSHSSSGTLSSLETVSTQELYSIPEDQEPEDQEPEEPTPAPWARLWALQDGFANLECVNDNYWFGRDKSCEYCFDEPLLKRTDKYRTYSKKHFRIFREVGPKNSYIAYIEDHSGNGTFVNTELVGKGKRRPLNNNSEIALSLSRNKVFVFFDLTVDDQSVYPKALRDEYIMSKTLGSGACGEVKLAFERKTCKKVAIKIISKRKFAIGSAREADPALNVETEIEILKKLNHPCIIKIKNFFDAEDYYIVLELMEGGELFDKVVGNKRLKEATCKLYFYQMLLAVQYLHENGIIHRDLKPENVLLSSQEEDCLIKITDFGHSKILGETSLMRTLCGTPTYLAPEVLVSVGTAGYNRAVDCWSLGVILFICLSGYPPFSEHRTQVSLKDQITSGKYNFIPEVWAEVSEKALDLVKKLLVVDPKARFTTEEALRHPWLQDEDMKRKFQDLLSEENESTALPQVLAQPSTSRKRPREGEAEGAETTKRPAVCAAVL
# protocol: Chk2 biochemical assay (CHK2/substrate peptide filter binding)
# cond: 60 μM ATP, 1.4 nM Chk2 enzyme
readoutLabel: pIC50
Lab note: report pIC50 as minus log10 of the concentration in molar units, number only.

# compound, readoutLabel, quantitativeResult
rows = [
    ("COc1nc(C)ccc1-c1cc(Nc2cncc(O[C@@H]3CCCNC3)n2)[nH]n1 [Example 1]", "pIC50", 7.96),
]

Moving on to another compound below.
I'm curious: which pIC50 was measured for COc1nc(C)ccc1-c1cc(Nc2cncc(O[C@@H]3CCCNC3)n2)[nH]n1 [Example 2] tested on recombinant Chk2 protein kinase (Homo sapiens, UniProt O96017)? 7.92

---

# System: HT-29 colon carcinoma cells
# protocol: ECtfs (two-fold sensitization) assay, gemcitabine potentiation, MTS
# Type: cell-based
# cond: Homo sapiens; HT-29 cells, [Example 3] 0 nM
readoutLabel: IC50
Please format your answer as a value with the unit trailing.

So what IC50 did Nc1ccn([C@@H]2O[C@H](CO)[C@@H](O)C2(F)F)c(=O)n1 [Gemcitabine, gemcitabine, reference compound] get with HT-29 colon carcinoma cells? 22 nM

---

# Test system: HeLa cells
# protocol: Doxorubicin-induced G2M checkpoint abrogation HeLa cell-based Acumen assay (pHH3)
# cond: 125 nM doxorubicin, 7 h compound, acetic acid salt
# Excerpt: An inhibitor of Chk1 will disable the G2M DNA damage checkpoint in p53-minus tumor cells treated with the topoisomerase II inhibitor, doxorubicin. […] Plates are scanned with ACUMEN EXPLORER™ Laser-scanning fluorescence microplate cytometers using 488 nm excitation (TTP LABTECH LTC) to measure pHH3 and DNA content including 2N, and 4N, The pHH3 positive cells are identified by mean intensity at 519 nm from Alexa 488. […]
Structures can show the parent of a compound that is named as a salt.
readoutLabel: pEC50
The value called pEC50 is obtained by taking minus log10 of the concentration in mol/L.

Form: Entry = COc1nc(C)ccc1-c1cc(Nc2cncc(O[C@@H]3CCCNC3)n2)[nH]n1 [Example 3, acetic acid salt] | System = HeLa cells | pEC50 = ____ 7.72

Taken from patent US9067920B2.
